The reported numbers originate from patent US6706663B2.

# Tested on: CHEAL (Chenopodium album)
# protocol summary: Postemergence herbicidal evaluation
# Type: in vivo, L.
# conditions used: postemergence, rate 0.0620 kg/ha
Hi there, I'd appreciate the recorded CHEAL herbicidal rating for every entry that follows.
In your answer, state the number alone without any accompanying words.

Name the reported CHEAL herbicidal rating value associated with the compound Cn1c(C(F)(F)F)cc(=O)n(-c2ccc3snc(C4OCC(CS(C)(=O)=O)O4)c3c2)c1=O (single isomer, unassigned) [Compound 87]
9.0

Name the reported CHEAL herbicidal rating value associated with the compound Cn1c(C(F)(F)F)cc(=O)n(-c2ccc3snc(C4OCC5(CO4)CO5)c3c2)c1=O (stereo not shown) [Compound 70]
9.0

Name the reported CHEAL herbicidal rating value associated with the compound CC1COC(c2nsc3ccc(-n4c(=O)cc(C(F)(F)F)n(C)c4=O)cc23)O1 (stereo not shown) [Compound 57]
7.0

Name the reported CHEAL herbicidal rating value associated with the compound CC(C)C1COC(c2nsc3ccc(-n4c(=O)cc(C(F)(F)F)n(C)c4=O)cc23)=N1 (stereo not shown) [Compound 74]
9.0

###

# Tested on: GLXMAW (Soybean, Williams)
# protocol summary: Postemergence herbicidal evaluation
# Assay type: in vivo, Glycine max, (L.) Merr. cv Williams
# conditions used: rate 0.0320 kg/ha
measured metric: Postemergence herbicidal rating, GLXMAW
In your answer, state the number alone without any accompanying words.

Find the measured Postemergence herbicidal rating, GLXMAW: item Cc1ccc(-c2nsc3ccc(N4C(=O)C5=C(CCCC5)C4=O)cc23)s1 [Compound 20] , target or system GLXMAW (Soybean, Williams).
5.5

Find the measured Postemergence herbicidal rating, GLXMAW: item Cc1cc(C)nc(-c2nsc3ccc(-n4c(=O)cc(C(F)(F)F)n(C)c4=O)cc23)n1 [Compound 40] , target or system GLXMAW (Soybean, Williams).
7.0

Find the measured Postemergence herbicidal rating, GLXMAW: item CC1CCOC(c2nsc3ccc(-n4c(=O)cc(C(F)(F)F)n(C)c4=O)cc23)O1 (stereo not shown) [Compound 37] , target or system GLXMAW (Soybean, Williams).
9.0

Find the measured Postemergence herbicidal rating, GLXMAW: item Cc1cccnc1-c1nsc2cc(F)c(N3C(=O)C4=C(CCCC4)C3=O)cc12 [Compound 46] , target or system GLXMAW (Soybean, Williams).
6.0

###

# Test system: TRZAWR (Wheat, Winter, cv Riband)
# protocol summary: Preemergence herbicidal evaluation
# Format: in vivo, Triticum aestivum
# conditions used: Rate 0.2500 kg/ha; preemergence; rated 4-5 weeks after treatment
measured metric: TRZAWR preemergence herbicidal rating
In your answer, state the number alone without any accompanying words.

Find the measured TRZAWR preemergence herbicidal rating: item Cn1cccc1-c1nsc2ccc(-n3c(=O)cc(C(F)(F)F)n(C)c3=O)cc12 [Compound 6] , target or system TRZAWR (Wheat, Winter, cv Riband).
2.0

Find the measured TRZAWR preemergence herbicidal rating: item Cn1c(C(F)(F)F)cc(=O)n(-c2ccc3snc(-c4ccsc4)c3c2)c1=O [Compound 1] , target or system TRZAWR (Wheat, Winter, cv Riband).
5.0

Find the measured TRZAWR preemergence herbicidal rating: item CCOC(=O)C1CS[C@H](c2nsc3ccc(-n4c(=O)cc(C(F)(F)F)n(C)c4=O)cc23)N1 (stereo partly drawn) [Compound 2] , target or system TRZAWR (Wheat, Winter, cv Riband).
7.0

Find the measured TRZAWR preemergence herbicidal rating: item Cc1csc(-c2nsc3ccc(-n4c(=O)cc(C(F)(F)F)n(C)c4=O)cc23)n1 [Compound 7] , target or system TRZAWR (Wheat, Winter, cv Riband).
2.0

Find the measured TRZAWR preemergence herbicidal rating: item Cn1c(C(F)(F)F)cc(=O)n(-c2ccc3snc(-c4ccccn4)c3c2)c1=O [Compound 9] , target or system TRZAWR (Wheat, Winter, cv Riband).
8.5

Find the measured TRZAWR preemergence herbicidal rating: item Cc1nnc(-c2nsc3ccc(-n4c(=O)cc(C(F)(F)F)n(C)c4=O)cc23)o1 [Compound 16] , target or system TRZAWR (Wheat, Winter, cv Riband).
7.0

Find the measured TRZAWR preemergence herbicidal rating: item Cc1cccnc1-c1nsc2ccc(-n3c(=O)cc(C(F)(F)F)n(C)c3=O)cc12 [Compound 19] , target or system TRZAWR (Wheat, Winter, cv Riband).
8.5

Find the measured TRZAWR preemergence herbicidal rating: item C[C@H]1O[C@@H]1c1nsc2ccc(-n3c(=O)cc(C(F)(F)F)n(C)c3=O)cc12 [Compound 14] , target or system TRZAWR (Wheat, Winter, cv Riband).
9.0

Find the measured TRZAWR preemergence herbicidal rating: item Cc1ccsc1-c1nsc2ccc(-n3c(=O)cc(C(F)(F)F)n(C)c3=O)cc12 [Compound 4] , target or system TRZAWR (Wheat, Winter, cv Riband).
4.3

###

Hi there, I'd appreciate the recorded IPOHE preemergence herbicidal rating for every entry that follows.
# System: IPOHE (Ipomoea hederacea)
# protocol summary: Preemergence herbicidal evaluation
# Type: in vivo, (L.) Jacq.
# conditions used: Rate 0.2500 kg/ha; preemergence; rated 4-5 weeks after treatment
In your answer, state the number alone without any accompanying words.

Name the reported IPOHE preemergence herbicidal rating value associated with the compound `Cc1ccn(-c2nsc3ccc(-n4c(=O)cc(C(F)(F)F)n(C)c4=O)cc23)n1`
6.0

Name the reported IPOHE preemergence herbicidal rating value associated with the compound CCOC(=O)C1CS[C@H](c2nsc3ccc(-n4c(=O)cc(C(F)(F)F)n(C)c4=O)cc23)N1 (some centres unmarked)
9.0

Name the reported IPOHE preemergence herbicidal rating value associated with the compound `COC(=O)COc1ccsc1-c1nsc2ccc(-n3c(=O)cc(C(F)(F)F)n(C)c3=O)cc12`
0.0

Name the reported IPOHE preemergence herbicidal rating value associated with the compound Cn1c(C(F)(F)F)cc(=O)n(-c2ccc3snc(C4SCCN4C(=O)c4ccccc4)c3c2)c1=O (centres unmarked)
6.5

Name the reported IPOHE preemergence herbicidal rating value associated with the compound `Cn1c(C(F)(F)F)cc(=O)n(-c2ccc3snc(C4OCCCO4)c3c2)c1=O`
9.0

Name the reported IPOHE preemergence herbicidal rating value associated with the compound `Cc1csc(-c2nsc3ccc(-n4c(=O)cc(C(F)(F)F)n(C)c4=O)cc23)n1`
9.0

Name the reported IPOHE preemergence herbicidal rating value associated with the compound `Cn1c(C(F)(F)F)cc(=O)n(-c2ccc3snc(C(SCCO)SCCO)c3c2)c1=O`
5.0

Name the reported IPOHE preemergence herbicidal rating value associated with the compound `Cn1c(C(F)(F)F)cc(=O)n(-c2ccc3snc(C4OCC(C)(C)CO4)c3c2)c1=O`
9.0

Name the reported IPOHE preemergence herbicidal rating value associated with the compound `Cc1ccc(-c2nsc3ccc(N4C(=O)C5=C(CCCC5)C4=O)cc23)s1`
0.0

Name the reported IPOHE preemergence herbicidal rating value associated with the compound `Cc1cccnc1-c1nsc2ccc(-n3c(=O)cc(C(F)(F)F)n(C)c3=O)cc12`
9.0

Name the reported IPOHE preemergence herbicidal rating value associated with the compound `Cc1ccc(-c2nsc3ccc(-n4c(=O)cc(C(F)(F)F)n(C)c4=O)cc23)s1`
5.0

###

# Test system: ABUTH (Abutilon theophrasti)
# protocol summary: Preemergence herbicidal evaluation
# Type: in vivo, Medic.
# conditions used: Rate 0.0620 kg/ha; preemergence; rated 4-5 weeks after treatment
Hi there, I'd appreciate the recorded ABUTH preemergence herbicidal rating for every entry that follows.
In your answer, state the number alone without any accompanying words.

Name the reported ABUTH preemergence herbicidal rating value associated with the molecule Cc1ccc(-c2nsc3ccc(N4C(=O)C5=C(CCCC5)C4=O)cc23)s1 [Compound 20]
1.0

Name the reported ABUTH preemergence herbicidal rating value associated with the molecule COC(=O)COc1ccsc1-c1nsc2ccc(-n3c(=O)cc(C(F)(F)F)n(C)c3=O)cc12 [Compound 22]
1.0

Name the reported ABUTH preemergence herbicidal rating value associated with the molecule Cn1c(C(F)(F)F)cc(=O)n(-c2ccc3snc(-c4ccsc4)c3c2)c1=O [Compound 1]
9.0

Name the reported ABUTH preemergence herbicidal rating value associated with the molecule Cn1c(C(F)(F)F)cc(=O)n(-c2ccc3snc(-c4cccs4)c3c2)c1=O [Compound 3]
8.5

Name the reported ABUTH preemergence herbicidal rating value associated with the molecule Cc1nnc(-c2nsc3ccc(-n4c(=O)cc(C(F)(F)F)n(C)c4=O)cc23)s1 [Compound 17]
9.0

Name the reported ABUTH preemergence herbicidal rating value associated with the molecule CCc1cc(-c2nsc3ccc(-n4c(=O)cc(C(F)(F)F)n(C)c4=O)cc23)c(CC)s1 [Compound 8]
0.0

Name the reported ABUTH preemergence herbicidal rating value associated with the molecule Cc1ccn(-c2nsc3ccc(-n4c(=O)cc(C(F)(F)F)n(C)c4=O)cc23)n1 [Compound 38]
4.0

Name the reported ABUTH preemergence herbicidal rating value associated with the molecule Cc1ccsc1-c1nsc2ccc(-n3c(=O)cc(C(F)(F)F)n(C)c3=O)cc12 [Compound 4]
7.8

Name the reported ABUTH preemergence herbicidal rating value associated with the molecule Cn1c(C(F)(F)F)cc(=O)n(-c2ccc3snc(C4OCCS4)c3c2)c1=O (stereo not shown) [Compound 31]
8.3

Name the reported ABUTH preemergence herbicidal rating value associated with the molecule CCOC(=O)C1CS[C@H](c2nsc3ccc(-n4c(=O)cc(C(F)(F)F)n(C)c4=O)cc23)N1 (stereo partly shown) [Compound 2]
9.0
